Target: GST-ARV1-N98 (Homo sapiens, UniProt Q9H2C2)
Construct: Expresses amino-terminal 98 amino acids of ARV1; made in house; host or cells: E. coli BL21 (pGEX-4T1)
Assay: Lipid overlay far western
Format: binding
Conditions: lipid-embedded membrane strips, incl. sphingolipid strip
Protocol: Lipid overlays were blocked in TBST-BSA (100 mM Tris–HCl buffer, pH 7.5, 150 mM NaCl, 0.5% Tween 20, 3% bovine serum albumin) for 1 h and subsequently washed eight separate times with TBST for 2 min each. […] Overlays were visualized using Immobilon Western Chemiluminescent horseradish peroxidase substrate and protein–lipid interaction was detected using a GE ImageQuant LAS 3000 imager.
Reported Endpoint: lipid-protein interaction

Some molecules with known lipid-protein interaction results, for comparison:
CC(C)CCC[C@@H](C)[C@H]1CC[C@H]2[C@@H]3CC=C4C[C@@H](O)CC[C@]4(C)[C@H]3CC[C@]12C :: not seen
CCCCCCCCCCCCCC[C@@H](O)[C@@H](O)[C@@H](N)CO :: not
CCCCCC(=O)O[C@H](COC(=O)CCCCCNC(=O)CCCC[C@@H]1SC[C@@H]2NC(=O)N[C@@H]21)COP(=O)(O)O[C@H]1[C@H](O)[C@@H](O)[C@H](OP(=O)(O)O)[C@@H](O)[C@H]1O [reference compound] :: interacted
CCCCCCCCCCCCC/C=C/[C@@H](O)[C@@H](N)CO :: not
CCCCCCCCCCCCC/C=C/[C@@H](O)[C@@H](N)COP(=O)(O)O [sphingosine-1-phosphate] :: not
CCCCCCCCCCCCCCCCCC(=O)OC[C@H](COP(=O)(O)OC[C@H](N)C(=O)O)OC(=O)CCCCCCCCCCCCCCCCC :: interacted

State recorded lipid-protein interaction for all listed molecules.
1. CCCCCCCC/C=C\CCCCCCCC(=O)OC[C@@H](O)COP(=O)(O)O
2. CCCCCCCC/C=C\CCCCCCCC(=O)OC[C@H](COP(=O)(O)OCC(O)CO)OC(=O)CCCCCCC/C=C\CCCCCCCC (stereo partly drawn)
3. CCCCC/C=C\C/C=C\CCCCCCCC(=O)OC[C@H](COP(=O)(O)OCC(O)COP(=O)(O)OC[C@@H](COC(=O)CCCCCCC/C=C\C/C=C\CCCCC)OC(=O)CCCCCCC/C=C\C/C=C\CCCCC)OC(=O)CCCCCCC/C=C\C/C=C\CCCCC (stereo partly drawn)

-- reply
not seen
interacted
interacted

====

target: 6XHIS-ARV1-N98 C34/C37A (Homo sapiens, UniProt Q9H2C2, C34A/C37A); construct: Expressing amino-terminal 98 amino acids of ARV1; made in house; host or cells: E. coli BL21 (pET-28a(+)); assay: Lipid overlay far western, site-directed mutant; assay type: binding; details: compared to the ARV1-N98 protein
Sequence (Q9H2C2 1-98 C34A/C37A): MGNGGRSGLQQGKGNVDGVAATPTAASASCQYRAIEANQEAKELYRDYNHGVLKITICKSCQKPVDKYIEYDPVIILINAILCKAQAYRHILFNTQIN
Reported Endpoint: change of lipid-protein interaction

CCCCCC(=O)O[C@H](COC(=O)CCCCCNC(=O)CCCC[C@@H]1SC[C@@H]2NC(=O)N[C@@H]21)COP(=O)(O)O[C@@H]1[C@H](O)[C@H](O)[C@@H](OP(=O)(O)O)[C@H](OP(=O)(O)O)[C@H]1O [PI(4,5)P2, reference compound] :: enhanced interactions
CCCCCC(=O)O[C@H](COC(=O)CCCCCNC(=O)CCCC[C@@H]1SC[C@@H]2NC(=O)N[C@@H]21)COP(=O)(O)O[C@H]1[C@H](O)[C@@H](O)[C@H](OP(=O)(O)O)[C@@H](O)[C@H]1O [reference compound] :: enhanced interactions

====

biological target: 6XHIS-N98 K67A (Homo sapiens, UniProt Q9H2C2, K67A); construct: made in house; host or cells: E. coli BL21; test: HTRF phospholipid lipid-binding assay, mutant; design: key: NC, no change; settings: biotinylated lipid; NC = no change vs N98
Sequence (Q9H2C2 1-98 K67A): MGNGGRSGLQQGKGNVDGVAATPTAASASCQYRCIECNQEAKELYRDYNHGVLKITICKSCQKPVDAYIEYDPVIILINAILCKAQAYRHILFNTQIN
Reported Endpoint: Bio-PL, EC50, M ± S.D.

CCCCCCCCCCCCCCCC(=O)OC[C@H](COP(=O)(O)O)OC(=O)CCCCCCCCCCCCCCC :: NC
CCCCCCCCCCCCCCCCCC(=O)OC[C@H](COP(=O)(O)OC[C@H](N)C(=O)O)OC(=O)CCCCCCCCCCCCCCCCC :: NC

====

target: 6XHIS-N98 N94Q (Homo sapiens, UniProt Q9H2C2, N94Q); construct: made in house; host or cells: E. coli BL21; assay: HTRF phospholipid lipid-binding assay, mutant; parameters: key: NC, no change; details: biotinylated lipid; NC = no change vs N98
Sequence (Q9H2C2 1-98 N94Q): as the sequence (Q9H2C2 1-98 C34A/C37A) above, with A34C, A37C, N94Q counted along it
Reported Endpoint: Bio-PL, EC50, M ± S.D.

CCCCCCCC/C=C\CCCCCCCC(=O)OC[C@H](COP(=O)(O)OCC(O)CO)OC(=O)CCCCCCC/C=C\CCCCCCCC (some centres unmarked) [PG, phosphatidylglycerol] :: NC
CCCCCCCCCCCCCCCCCC(=O)OC[C@H](COP(=O)(O)OC[C@H](N)C(=O)O)OC(=O)CCCCCCCCCCCCCCCCC [PS, phosphatidylserine] :: NC
CCCCC/C=C\C/C=C\CCCCCCCC(=O)OC[C@H](COP(=O)(O)OCC(O)COP(=O)(O)OC[C@@H](COC(=O)CCCCCCC/C=C\C/C=C\CCCCC)OC(=O)CCCCCCC/C=C\C/C=C\CCCCC)OC(=O)CCCCCCC/C=C\C/C=C\CCCCC (some centres unmarked) [CL, cardiolipin] :: NC

====

target: GST-ARV1 (full-length ARV1) (Homo sapiens, UniProt Q9H2C2); construct: Expresses full length ARV1; made in house; host or cells: E. coli BL21 (pGEX-4T1); assay: Lipid overlay far western; format: binding; conditions: lipid-embedded membrane strips, incl. sphingolipid strip
Sequence (Q9H2C2 whole entry): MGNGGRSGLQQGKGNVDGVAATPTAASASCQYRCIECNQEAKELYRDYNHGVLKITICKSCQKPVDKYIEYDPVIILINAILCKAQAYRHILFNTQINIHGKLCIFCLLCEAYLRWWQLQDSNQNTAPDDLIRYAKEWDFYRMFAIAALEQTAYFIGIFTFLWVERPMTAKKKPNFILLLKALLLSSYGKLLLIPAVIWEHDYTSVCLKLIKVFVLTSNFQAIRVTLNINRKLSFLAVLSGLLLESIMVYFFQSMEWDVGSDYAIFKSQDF
Reported Endpoint: lipid-protein interaction

CCCCCCCCCCCCCC[C@@H](O)[C@@H](O)[C@@H](N)CO [phytosphingosine] :: not

====

target: 6XHIS-N98 E70A (Homo sapiens, UniProt Q9H2C2, E70A); construct: made in house; host or cells: E. coli BL21; experiment: HTRF phospholipid lipid-binding assay, mutant; design: key: NC, no change; conditions: biotinylated lipid; NC = no change vs N98
Sequence (Q9H2C2 1-98 E70A): as the sequence (Q9H2C2 1-98 C34A/C37A) above, with A34C, A37C, E70A counted along it
Reported Endpoint: Bio-PL, EC50, M ± S.D.

CCCCCCCCCCCCCCCCCC(=O)OC[C@H](COP(=O)(O)OC[C@H](N)C(=O)O)OC(=O)CCCCCCCCCCCCCCCCC :: NC
CCCCC/C=C\C/C=C\CCCCCCCC(=O)OC[C@H](COP(=O)(O)OCC(O)COP(=O)(O)OC[C@@H](COC(=O)CCCCCCC/C=C\C/C=C\CCCCC)OC(=O)CCCCCCC/C=C\C/C=C\CCCCC)OC(=O)CCCCCCC/C=C\C/C=C\CCCCC (some centres unmarked) :: NC
CCCCCCCC/C=C\CCCCCCCC(=O)OC[C@H](COP(=O)(O)OCC(O)CO)OC(=O)CCCCCCC/C=C\CCCCCCCC (some centres unmarked) :: NC

====

target: 6XHIS-N98 K54/K59A (Homo sapiens, UniProt Q9H2C2, K54A/K59A); construct: made in house; host or cells: E. coli BL21; experiment: HTRF phospholipid lipid-binding assay, mutant; parameters: key: NC, no change; settings: biotinylated lipid; NC = no change vs N98
Sequence (Q9H2C2 1-98 K54A/K59A): as the sequence (Q9H2C2 1-98 C34A/C37A) above, with A34C, A37C, K54A, K59A counted along it
Reported Endpoint: Bio-PL, EC50, M ± S.D.

CCCCCCCCCCCCCCCCCC(=O)OC[C@H](COP(=O)(O)OC[C@H](N)C(=O)O)OC(=O)CCCCCCCCCCCCCCCCC :: NC
CCCCC/C=C\C/C=C\CCCCCCCC(=O)OC[C@H](COP(=O)(O)OCC(O)COP(=O)(O)OC[C@@H](COC(=O)CCCCCCC/C=C\C/C=C\CCCCC)OC(=O)CCCCCCC/C=C\C/C=C\CCCCC)OC(=O)CCCCCCC/C=C\C/C=C\CCCCC (stereo partly shown) :: NC

====

target: 6XHIS-ARV1-N98 K84A (Homo sapiens, UniProt Q9H2C2, K84A); construct: Expressing amino-terminal 98 amino acids of ARV1; made in house; host or cells: E. coli BL21 (pET-28a(+)); assay: Lipid overlay far western, site-directed mutant; assay type: binding; conditions: compared to the ARV1-N98 protein
Sequence (Q9H2C2 1-98 K84A): as the sequence (Q9H2C2 1-98 C34A/C37A) above, with A34C, A37C, K84A counted along it
Reported Endpoint: change of lipid-protein interaction

CCCCCCCC/C=C\CCCCCCCC(=O)OC[C@H](COP(=O)(O)OCC(O)CO)OC(=O)CCCCCCC/C=C\CCCCCCCC (stereo partly shown) [PG, phosphatidylglycerol] :: weakened
CCCCCC(=O)O[C@H](COC(=O)CCCCCNC(=O)CCCC[C@@H]1SC[C@@H]2NC(=O)N[C@@H]21)COP(=O)(O)O[C@@H]1[C@H](O)[C@H](O)[C@@H](OP(=O)(O)O)[C@H](OP(=O)(O)O)[C@H]1O [PI(4,5)P2, reference compound] :: increased interactions
CCCCCC(=O)O[C@H](COC(=O)CCCCCNC(=O)CCCC[C@@H]1SC[C@@H]2NC(=O)N[C@@H]21)COP(=O)(O)O[C@H]1[C@H](O)[C@@H](O)[C@H](OP(=O)(O)O)[C@@H](O)[C@H]1O [reference compound] :: increased interactions
CCCCC/C=C\C/C=C\CCCCCCCC(=O)OC[C@H](COP(=O)(O)OCC(O)COP(=O)(O)OC[C@@H](COC(=O)CCCCCCC/C=C\C/C=C\CCCCC)OC(=O)CCCCCCC/C=C\C/C=C\CCCCC)OC(=O)CCCCCCC/C=C\C/C=C\CCCCC (stereo partly shown) [CL, cardiolipin] :: weakened
